- EXPERIMENTAL TARGET: Melanin-concentrating hormone receptor 1 (Homo sapiens, UniProt Q99705)
- Sequence (Q99705 whole entry): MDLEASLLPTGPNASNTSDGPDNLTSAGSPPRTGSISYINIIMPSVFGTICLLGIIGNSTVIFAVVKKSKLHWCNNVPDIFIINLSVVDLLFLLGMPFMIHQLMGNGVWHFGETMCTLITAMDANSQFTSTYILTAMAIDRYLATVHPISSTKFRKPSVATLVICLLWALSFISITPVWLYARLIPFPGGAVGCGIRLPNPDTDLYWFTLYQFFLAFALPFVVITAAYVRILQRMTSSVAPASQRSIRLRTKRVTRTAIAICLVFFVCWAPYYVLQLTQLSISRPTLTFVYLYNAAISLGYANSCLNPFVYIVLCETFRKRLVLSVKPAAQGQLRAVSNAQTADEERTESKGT
- ASSAY REMARKS: Inhibition of MCH-mediated calcium release in whole IMR32 cells by FLIPR
- Type: functional, cell-based, IMR-32
EXPERIMENTAL ENDPOINT: pIC50
Numbers only, as −log10 of the molar value.

// worked examples, pIC50 included
COMPOUND	pIC50
COc1ccc2c(c1)c(NC1CCN(Cc3ccc4c(c3)OCO4)CC1)cc(=O)n2C	7.70
Cn1c(=O)c(C#N)c(NC2CCN(Cc3ccc4ccccc4c3)CC2)c2cc(Cl)ccc21	6.71
O=c1nc(NC2CCN(Cc3ccc4c(c3)OCO4)CC2)c2cc(Cl)ccc2n1CC(F)(F)F	7.54
Cn1c(=O)c(C#N)c(NC2CCN(Cc3ccc4c(c3)OCO4)CC2)c2cc(Cl)ccc21	7.16

// input: 2 compounds below; output: pIC50 for each
1. Cn1c(=O)nc(NC2CC3CCC(C2)N3Cc2ccc3c(c2)OCO3)c2cc(Cl)ccc21 (stereo in doubt; 4g)
2. Cn1c(=O)cc(NC2CCN(Cc3ccc4c(c3)OCO4)CC2)c2cc(OC(F)(F)F)ccc21

**A:**
[7.28, 6.98]

* * *

Field: IC50. Provide a value for each of the compounds that follow.
- EXPERIMENTAL TARGET: Melanin-concentrating hormone receptor 1 (Homo sapiens)
- ASSAY REMARKS: Inhibition of MCH-mediated calcium release in whole IMR32 cells by FLIPR
- Type: functional, cell-based, IMR-32
Give bare numbers, in nM.

Previously resolved entries follow.
COMPOUND	MEASUREMENT UNITS	IC50
Cn1c(=O)nc(NC2CCN(Cc3ccc4c(c3)OCO4)CC2)c2cc(Cl)ccc21	nM	62
O=c1cc(NC2CCN(Cc3ccc4ccccc4c3)CC2)c2cc(Cl)ccc2n1Cc1ccccn1	nM	55
Cn1c(=O)cc(NC2CCN(Cc3ccc4c(c3)OCO4)CC2)c2cc(OC(F)F)ccc21	nM	34
O=c1nc(NC2CC3CCC(C2)N3Cc2ccc3c(c2)OCO3)c2cc(Cl)ccc2n1CC(F)(F)F (centres undefined)	nM	31
N#Cc1c(NC2CCN(Cc3ccc4c(c3)OCO4)CC2)c2cc(Cl)ccc2[nH]c1=O	nM	20
Cn1c(=O)cc(NC2CCN(Cc3ccc4ccccc4c3)CC2)c2cc(Cl)ccc21	nM	100

I'm hoping you can list IC50 for every compound here, please.
1. O=c1nc(NC2CCN(Cc3ccc4ccccc4c3)CC2)c2cc(Cl)ccc2n1CC(F)(F)F
2. O=c1cc(NC2CCN(Cc3ccc4c(c3)OCO4)CC2)c2cc(Cl)ccc2n1Cc1ccccn1
3. Cn1c(=O)nc(NC2CC3CCC(C2)N3Cc2ccc3c(c2)OCO3)c2cc(Cl)ccc21 (stereo in doubt; 4i)

**A:**
62
20
136

* * *

- ASSAY REMARKS: Brain to plasma AUC ratio in DIO mouse at 10 mg/kg
- Type: ADME, organism-based
- Design: dose 10 mg/kg
- TEST PARAMETERS: read-out: Ratio AUC
Record form. Attribute: Kp. Fill in for each entry.
Answers are plain numbers.

Cn1c(=O)nc(NC2CCN(Cc3ccc4c(c3)OCO4)CC2)c2cc(Cl)ccc21 0.13

Field: Kp. Fill in for each record below.
1. Cn1c(=O)c(C#N)c(NC2CCN(Cc3ccc4c(c3)OCO4)CC2)c2cc(Cl)ccc21
2. O=c1cc(NC2CCN(Cc3ccc4c(c3)OCO4)CC2)c2cc(Cl)ccc2n1Cc1ccncc1

**A:**
1: 0.11; 2: 0.29

* * *

Task for the reader: assign each of the following molecules its reported pIC50.
- EXPERIMENTAL TARGET: Melanin-concentrating hormone receptor 1 (Homo sapiens, UniProt Q99705)
- ASSAY REMARKS: Displacement of [125I]MCH from MCHr1 expressed in IMR32 cells
- Type: cell-based, IMR-32
Give bare numbers, as −log10 of the molar value.

MOLECULE	pIC50
Cn1c(=O)nc(NC2CC3CCC(C2)N3Cc2ccc3c(c2)OCO3)c2cc(Cl)ccc21 (stereo in doubt; 4i)	7.17
O=c1cc(NC2CCN(Cc3ccc4c(c3)OCO4)CC2)c2cc(Cl)ccc2[nH]1	8.40
Cn1c(=O)c(C(=O)N2CCCC2)c(NC2CCN(Cc3ccc4c(c3)OCO4)CC2)c2cc(Cl)ccc21	7.80
COC(=O)c1c(NC2CCN(Cc3ccc4c(c3)OCO4)CC2)c2cc(Cl)ccc2n(C)c1=O	7.01

Field: pIC50. Fill in for each record below.
1. Cn1c(=O)nc(NC2CCN(Cc3ccc4c(c3)OCO4)CC2)c2cc(Cl)ccc21
2. N#Cc1c(NC2CCN(Cc3ccc4c(c3)OCO4)CC2)c2cc(Cl)ccc2[nH]c1=O
3. O=c1cc(NC2CCN(Cc3ccc4ccccc4c3)CC2)c2cc(Cl)ccc2n1Cc1ccccn1
4. Cn1c(=O)cc(NC2CCN(Cc3ccc4c(c3)OCO4)CC2)c2cc(OC(F)(F)F)ccc21
5. O=c1cc(NC2CCN(Cc3ccc4c(c3)OCO4)CC2)c2cc(Cl)ccc2n1Cc1ccccc1

**A:**
1. 8.30
2. 7.82
3. 9.05
4. 7.47
5. 9.10

* * *

- EXPERIMENTAL TARGET: Voltage-gated inwardly rectifying potassium channel KCNH2 (Homo sapiens, UniProt Q12809)
- Sequence (Q12809 whole entry): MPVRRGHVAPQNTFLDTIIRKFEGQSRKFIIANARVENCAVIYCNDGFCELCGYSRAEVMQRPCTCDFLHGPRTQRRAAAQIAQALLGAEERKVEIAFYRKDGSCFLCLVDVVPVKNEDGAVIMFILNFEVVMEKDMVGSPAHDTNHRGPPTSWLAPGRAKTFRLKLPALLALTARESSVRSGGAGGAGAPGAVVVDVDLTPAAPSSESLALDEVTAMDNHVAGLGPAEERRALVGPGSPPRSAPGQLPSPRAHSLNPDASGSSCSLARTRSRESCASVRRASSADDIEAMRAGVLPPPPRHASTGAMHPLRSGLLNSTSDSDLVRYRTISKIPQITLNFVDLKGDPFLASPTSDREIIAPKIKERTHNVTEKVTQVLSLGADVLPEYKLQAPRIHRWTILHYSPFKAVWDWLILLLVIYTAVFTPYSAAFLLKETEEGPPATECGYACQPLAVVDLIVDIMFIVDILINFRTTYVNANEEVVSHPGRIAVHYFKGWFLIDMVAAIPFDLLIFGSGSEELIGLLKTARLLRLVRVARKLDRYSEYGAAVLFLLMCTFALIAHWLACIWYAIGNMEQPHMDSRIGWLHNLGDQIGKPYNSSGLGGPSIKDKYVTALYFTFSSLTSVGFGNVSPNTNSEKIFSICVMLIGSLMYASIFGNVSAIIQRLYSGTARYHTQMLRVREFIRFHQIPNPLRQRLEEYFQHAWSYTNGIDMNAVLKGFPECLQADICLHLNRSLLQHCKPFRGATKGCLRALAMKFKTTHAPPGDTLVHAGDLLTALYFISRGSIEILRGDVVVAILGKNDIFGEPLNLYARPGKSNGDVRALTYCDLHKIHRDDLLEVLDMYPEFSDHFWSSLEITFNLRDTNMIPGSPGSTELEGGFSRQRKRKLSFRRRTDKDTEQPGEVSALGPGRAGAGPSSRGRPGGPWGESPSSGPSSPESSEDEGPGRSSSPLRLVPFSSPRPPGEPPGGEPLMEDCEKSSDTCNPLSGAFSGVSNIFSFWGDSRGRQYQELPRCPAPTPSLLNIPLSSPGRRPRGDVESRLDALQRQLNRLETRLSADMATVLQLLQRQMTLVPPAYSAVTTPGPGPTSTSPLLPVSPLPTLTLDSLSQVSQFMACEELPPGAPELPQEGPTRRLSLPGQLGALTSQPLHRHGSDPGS
- ASSAY REMARKS: Binding affinity to hERG stably transfected in HEK293 cells
Kindly supply the reported Ki values for the records listed here.
Numbers only, in nM.

Cn1c(=O)nc(NC2CCN(Cc3ccc4c(c3)OCO4)CC2)c2cc(Cl)ccc21 150

# return Ki for each item in the list
1. Cn1c(=O)cc(NC2CCN(Cc3ccc4c(c3)OCO4)CC2)c2cc(OC(F)(F)F)ccc21
2. CCCCCn1c(=O)nc(NC2CCN(Cc3ccc4c(c3)OCO4)CC2)c2cc(Cl)ccc21
3. O=c1cc(NC2CCN(Cc3ccc4c(c3)OCO4)CC2)c2cc(Cl)ccc2n1Cc1ccncc1

**A:**
[1800, 135, 355]

* * *

- ASSAY REMARKS: Half life in DIO mouse brain at 10 mg/kg
- Type: ADME, organism-based
- Set-up: dose 10 mg/kg
EXPERIMENTAL ENDPOINT: half-life (h)
Give bare numbers, in h.

Cn1c(=O)c(C#N)c(NC2CCN(Cc3ccc4c(c3)OCO4)CC2)c2cc(Cl)ccc21 2
Cn1c(=O)nc(NC2CCN(Cc3ccc4c(c3)OCO4)CC2)c2cc(Cl)ccc21 1.9

**Q:** Consider the molecule "O=c1cc(NC2CCN(Cc3ccc4c(c3)OCO4)CC2)c2cc(Cl)ccc2n1Cc1ccncc1" and give its recorded half-life.
**A:** 2.5

* * *

Provide the recorded pIC50 for the entries that follow.
- EXPERIMENTAL TARGET: Melanin-concentrating hormone receptor 1 (Homo sapiens)
- ASSAY REMARKS: Displacement of [125I]MCH from MCHr1 expressed in IMR32 cells
- Type: cell-based, IMR-32
Answers are plain numbers, as −log10 of the molar value.

COMPOUND	MEASUREMENT
Cn1c(=O)cc(NC2CCN(Cc3ccc4ccccc4c3)CC2)c2cc(Cl)ccc21	8.30
Cn1c(=O)nc(NC2CC3CCC(C2)N3Cc2ccc3c(c2)OCO3)c2cc(Cl)ccc21 (stereo in doubt; 4g)	8.05
Cn1c(=O)nc(NC2CCN(Cc3ccc4ccccc4c3)CC2)c2cc(Cl)ccc21	8.15
O=c1cc(NC2CCN(Cc3ccc4c(c3)OCO4)CC2)c2cc(Cl)ccc2n1Cc1ccccn1	8.92
O=c1nc(NC2CC3CCC(C2)N3Cc2ccc3c(c2)OCO3)c2cc(Cl)ccc2n1CC(F)(F)F (centres undefined)	8.40
O=c1cc(NC2CCN(Cc3ccc4c(c3)OCO4)CC2)c2cc(Cl)ccc2n1Cc1ccncc1	8.96

Would you be so kind as to report pIC50 for each listed record?
1. COc1ccc2c(c1)c(NC1CCN(Cc3ccc4c(c3)OCO4)CC1)cc(=O)n2C
2. CCCCCn1c(=O)nc(NC2CCN(Cc3ccc4c(c3)OCO4)CC2)c2cc(Cl)ccc21
3. Cn1c(=O)cc(NC2CCN(Cc3ccc4c(c3)OCO4)CC2)c2cc(OC(F)F)ccc21

**A:**
1: 8.52; 2: 7.92; 3: 8.30

* * *

- EXPERIMENTAL TARGET: Voltage-gated inwardly rectifying potassium channel KCNH2 (Homo sapiens, UniProt Q12809)
- ASSAY REMARKS: Binding affinity to hERG stably transfected in HEK293 cells
- Format: cell-based
Kindly supply the reported Ki values for the records listed here.
One number for each entry, in nM.

Would you please look over these solved cases?
O=c1nc(NC2CCN(Cc3ccc4ccccc4c3)CC2)c2cc(Cl)ccc2n1CC(F)(F)F 150
O=c1cc(NC2CCN(Cc3ccc4ccccc4c3)CC2)c2cc(Cl)ccc2n1Cc1ccccn1 88

For each of the compounds below, state Ki.
1. N#Cc1c(NC2CCN(Cc3ccc4c(c3)OCO4)CC2)c2cc(Cl)ccc2[nH]c1=O
2. O=c1cc(NC2CCN(Cc3ccc4c(c3)OCO4)CC2)c2cc(Cl)ccc2n1Cc1ccccn1

**A:**
[420, 550]
